# ASSAY SYSTEM: Aldehyde dehydrogenase 1A1 (Homo sapiens)
# MEASUREMENT NOTES: qHTS Assay for Inhibitors of Aldehyde Dehydrogenase 1 (ALDH1A1)
# CONDITION LABEL: Purified ALDH1A1, NADH fluorescence, propionaldehyde substrate; series mostly up to 75.3 µM
The campaign covered roughly 220,000 compounds. About 16,000 (7.3%) were called active. Another 25% or so got no clear call; they are omitted. The call rests on the fitted dose curve; in most records, active means well fitted inhibition curve with a large enough effect (not every such curve was filed as active); inconclusive means small, poorly fitted or top-dose-only effect, or another doubt; inactive means no such curve, though single readings can be large or run the other way. The full list was thinned out, with actives kept by preference.
Lab note: assign the record to one of active, inactive

Tell me the recorded outcome of this test for `O=C(CN1C(=O)NC2(CCCCCC2)C1=O)NCc1cccs1` . inactive

Tell me the recorded outcome of this test for `Cc1cc(OCC(=O)NC2CCN(C)CC2)ccc1[N+](=O)[O-]` . inactive

Tell me the recorded outcome of this test for `O=C(Nc1ccccc1N1CCCCC1)c1cccc(F)c1` . inactive

Tell me the recorded outcome of this test for `CCCCN(C(=O)/C=C/c1ccco1)c1c(N)n(CC(C)C)c(=O)[nH]c1=O` . inactive

Tell me the recorded outcome of this test for `O=C1CN(C(=O)CN2C(=O)NC3(CCCCC3)C2=O)c2ccccc2N1` . active
